- TARGET ENTITY: UniProt A0A024AXB9
- Sequence (A0A024AXB9 whole entry): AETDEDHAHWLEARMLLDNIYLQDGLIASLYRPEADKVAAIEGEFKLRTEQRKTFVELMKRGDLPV
- ASSAY PROTOCOL: Functional biochemical assay to identify treatments for viral infectious disease that targets Zika NS2B-NS3 protease. Utilizing a direct enzyme activity measurement method, reading the fluorescence intensity is used to characterize the relative potency of inhibitors as IC50.
- Design: species or system PRVABC59
pIC50: −log10 of the molar value.
VALUE KIND: pIC50

>>> reading("O=C(Nc1cc(Cl)cc(C(=O)Nc2cc(Br)cc(-c3nnn[nH]3)c2)c1)OCc1ccccc1")
5.14
>>> reading("O=C(N[C@@H](C(=O)NCc1cccnc1)c1ccc(OCc2ccccc2)cc1)OCc1ccccc1")
"< 4.00"
>>> reading("C[C@H](NC(=O)c1cccc2c1CC(=O)N2)c1cc2cnccc2o1")
"< 4.60"
>>> reading("O=C(Nc1ccc2c(c1)CNC2)c1cc(F)cc(-c2ccnc3c2CCO3)c1")
5.92

**Q:** Give recorded pIC50 with UniProt A0A024AXB9 for the following compound: "Cc1c(C(=O)Nc2n[nH]c3c2CNC3)cc(C2CC2)n1C"
**A:** < 4.00

**Q:** Request: pIC50, test system UniProt A0A024AXB9, entry "NCCCc1ccnc(NC(=O)c2cc(C3CC3)[nH]n2)c1"
**A:** < 4.60

**Q:** Please tell me: pIC50 of "O=C(Nc1ccc2c(c1)CNC2)N1CCC[C@H](Cc2nccs2)C1" , system UniProt A0A024AXB9?
**A:** < 4.60

**Q:** Please provide the recorded pIC50 for "NCc1cccc(NC(=O)c2cc3c(F)cc(F)c(F)c3[nH]2)c1" , tested on UniProt A0A024AXB9.
**A:** 4.37

**Q:** Reported pIC50 for UniProt A0A024AXB9, given "O=C(Nc1cc(-c2cccnc2)ccn1)c1nnc(C2CC2)s1" ?
**A:** < 4.60

**Q:** GET /values?readout=pIC50&system=UniProt A0A024AXB9&item= "COC(=O)[C@H](NC(=O)OC(C)(C)C)c1ccc(-c2csc(C)c2)cc1"
**A:** < 4.00

**Q:** Record "CNC(=O)[C@]1(Nc2ccc3c(c2)CNC3)CCc2ccccc21" : what is its pIC50 with UniProt A0A024AXB9?
**A:** < 4.60

**Q:** Observed pIC50 on UniProt A0A024AXB9 for "Cc1nc([C@H]2CCCNC2)[nH]c1C(=O)Nc1ccccn1" , please.
**A:** < 4.00
